system: MDA-MB-468 breast; assay: NCI-60 one-dose screen, 48 h (100 = growth as untreated, 0 = no growth, -100 = all killed); details: 10 µM unless noted
The panel holds about 83,000 compounds, 20% with a hit somewhere; the sample as a whole holds those more often.
I'd appreciate it if you could supply growth values for the items below.
Give bare numbers, in %.

O=C(O)CC1CCCCC1c1ccccc1 (configuration not stated); 105
Cc1ncc(C(=O)Nc2ccc(CN3CCN(C)CC3)c(C(F)(F)F)c2)cc1C#Cc1ccc(N)nc1; 10.9
CCc1cccc(-c2ccccc2)c1; 106
CCOC(=O)CN1CCC(C(=O)OCC)CC1; 114
O=C([C@H]1C[C@H]1c1ccc(S(F)(F)(F)(F)F)cc1)N1CCN(c2cc(Cl)ccc2C(F)(F)F)CC1; 58.9

Here are 6 molecules. What values of growth were reported for them?
1. C=C(C)[C@@H]1CC[C@]2(C(=O)N3CCN(C)CC3)CC[C@]3(C)[C@H](CC[C@@H]4[C@@](C)(CCC(=O)O)[C@H](C(=C)C)CC[C@]43C)[C@@H]12
2. COc1cc(C(=O)c2cc(C)c3[nH]c4ccc(O)cc4c3c2C)cc(OC)c1OC
3. CNC(=O)c1cc(-n2ccc3cc(NC(=O)Nc4ccc(N5CCOCC5)c(C(F)(F)F)c4)ccc32)ccn1
4. O=C(CSc1nc2ccccc2c(=O)n1-c1ccc(Cl)c(Cl)c1)Nc1ccc(S(=O)(=O)Nc2ccc(Cl)nn2)cc1
5. COc1ccc(C2C(C#N)=C(N)Oc3n[nH]c(-c4cccs4)c32)cc1I (configuration not stated)
6. O=C(O)c1ccccc1C(=O)Nc1ccc(Cl)cc1

Result:
1: 90.1; 2: -22.7; 3: 95.2; 4: 116; 5: 86.8; 6: 120

Count: 2. Required value per item: growth.
1. O=C(Nc1cccc(C(=O)N2CCc3ccc(Cl)cc32)c1)c1ccco1
2. CN1CCCN(C(c2ccccc2)c2ccc(Cl)cc2)CC1 (configuration not stated)

Result:
1. -0.651
2. 83.1

Dear colleague, could you send me growth for each of the items below? Thanks.
1. Nc1ccccc1-c1cc2c(c3c1[nH]c1ccccc13)CCCCC2
2. O=c1cc(-c2ccccc2)nc2cc(-c3ccco3)[nH]n12
3. COc1ccc(NC(=O)c2sc3nc4c(cc3c2N)CCCC4)cc1
4. CS(=O)(=O)c1ccc(Nc2nc(N[C@H]3CCCC[C@H]3N)nc3cc[nH]c(=O)c23)cc1
5. O=c1cc(-c2ccccc2)[nH]c2c1CCCC2
6. COc1ccc2c(c1)C(C)Cc1c(N(C)C)ncnc1N2C (configuration not stated)

Result:
1: 98.2; 2: -1.48; 3: 13.6; 4: -75.2; 5: 39.9; 6: 29.9

Provide growth values for the following items, in order.
1. Oc1ccc(CNNc2ccnc3c(O)cccc23)c2cccnc12
2. C=CCSc1n[nH]c(-c2cccs2)n1

Result:
1: 64.3; 2: 95.6

Task: Give the value of growth reported for the following: "C#CCOc1ccc2ncnc(Nc3ccc(NC(=O)CCl)cc3)c2c1"
Result: -57.7
